Hello, the source for this data is ChEMBL document CHEMBL4152208, in case you need it.

# TGT: P2X purinoceptor 7 (Homo sapiens)
# PROTOCOL_DESCRIPTION: Antagonist activity at P2X7 in LPS/IFN gamma differentiated human THP-1 cells assessed as inhibition of BzATP-induced IL-1beta release at 10 uM preincubated for 30 mins followed by BzATP stimulation for 30 mins by ELISA
# Format: cell-based
Criterion: inhibition meeting or surpassing 40%. Met: criterion met. Not met: criterion not met.

Please review the entries below; each comes with its answer.
COC(=O)c1cc2c(NC(=O)C34CC5CC(CC(C5)C3)C4)cccc2n(Cc2ccc([N+](=O)[O-])cc2)c1=O
criterion met
COC(=O)c1cc2c(NC(=O)C34CC5CC(CC(C5)C3)C4)cccc2n(Cc2ccc(OC)cc2)c1=O
criterion met
COC(=O)c1cc2c(NC(=O)C34CC5CC(CC(C5)C3)C4)cccc2n(Cc2ccc(F)cc2)c1=O
criterion not met

Query: In plain terms: is recorded inhibition at least 40% for CN([C@@H](Cc1ccc(OS(=O)(=O)c2cccc3cnccc23)cc1)C(=O)N1CCN(c2ccccc2)CC1)S(=O)(=O)c1cccc2cnccc12 ?
Response: criterion met

Query: Is inhibition for CCCOC(=O)c1cc2c(NC(=O)C34CC5CC(CC(C5)C3)C4)cccc2n(Cc2ccc(OC)cc2)c1=O at or above 40%?
Response: criterion not met

Query: Is reported inhibition greater than or equal to 40% here: CCOC(=O)c1cc2c(NC(=O)C34CC5CC(CC(C5)C3)C4)cccc2n(Cc2ccc(OC)cc2)c1=O
Response: criterion met

###

# TGT: P2X purinoceptor 7 (Homo sapiens, UniProt Q99572)
# PROTOCOL_DESCRIPTION: Antagonist activity at human P2X7 receptor in expressed in HEK293 cells assessed as inhibition of BzATP-induced EtBr uptake
# Type: cell-based
# Lookup of reported pIC50 keyed by entry
By convention, pIC50 is the negative base-10 log of a molar concentration.

O=C1NC(=O)C(C2CCN(C(=O)c3ccc(Cl)c(C(F)(F)F)c3)CC2)C1Cc1ccc(OS(=O)(=O)c2cccc3cnccc23)cc1 (stereo not drawn)
7.27
Clc1cccc(-c2nnnn2Cc2cccnc2)c1Cl
6.52

Consider now this further compound.
Query: Reported pIC50 for N[C@H]1CCN(Cc2ccc(Cl)c(C(=O)NCC34CC5CC(CC(C5)C3)C4)c2)C1 : what is it?
Response: 7.07

###

# TGT: P2X purinoceptor 7 (Homo sapiens)
# PROTOCOL_DESCRIPTION: Antagonist activity at P2X7 in LPS/IFN gamma differentiated human THP-1 cells assessed as inhibition of BzATP-induced IL-1beta release at 1 uM preincubated for 30 mins followed by BzATP stimulation for 30 mins by ELISA
# Format: cell-based
MEASURE: inhibition

CCCOC(=O)c1cc2c(NC(=O)C34CC5CC(CC(C5)C3)C4)cccc2n(Cc2ccc(OC)cc2)c1=O
11%
COC(=O)c1cc2c(NC(=O)C34CC5CC(CC(C5)C3)C4)cccc2n(Cc2ccc([N+](=O)[O-])cc2)c1=O
38%
COC(=O)c1cc2c(NC(=O)C34CC5CC(CC(C5)C3)C4)cccc2n(Cc2ccc(F)cc2)c1=O
12%

Query: Item under review: CCOC(=O)c1cc2c(NC(=O)C34CC5CC(CC(C5)C3)C4)cccc2n(Cc2ccc(OC)cc2)c1=O . Reported inhibition?
Response: 7%

###

# PROTOCOL_DESCRIPTION: Metabolic stability in rat liver microsomes assessed as parent compound remaining at 1 uM up to 30 mins in presence of NADPH by LC-MS/MS analysis
# Format: ADME, microsome
# RUN_PARAMETERS: read-out: Stability
So basically, if remaining at 0.5 h, 1 µM comes in under 10% it's rule met, and if it's 10% or more it's rule not met.

Here are 4 compounds together with their reported answers.
O=C(CC12CC3CC(CC(C3)C1)C2)Nc1cccc2nc(Cl)ccc12
rule met
O=C(CC12CC3CC(CC(C3)C1)C2)Nc1cccc2nc(-c3ccc(CO)cc3)ccc12
rule not met
Nc1ccc(-c2ccc3c(NC(=O)CC45CC6CC(CC(C6)C4)C5)cccc3n2)cc1
rule not met
O=C(CC12CC3CC(CC(C3)C1)C2)Nc1cccc2nc(-c3ccc(O)cc3)ccc12
rule not met

Now look at this one.
Query: Threshold test, remaining at 0.5 h, 1 µM < 10%: O=C(CC12CC3CC(CC(C3)C1)C2)Nc1cccc2nc(-c3ccc(C(=O)O)cc3)ccc12
Response: rule not met

###

# TGT: P2X purinoceptor 7 (Homo sapiens, UniProt Q99572)
# PROTOCOL_DESCRIPTION: Antagonist activity at human P2X7 receptor expressed in HEK293 cells assessed as inhibition of BzATP-induced EtBr uptake after 2 hrs by fluorescence assay relative to control
# Type: cell-based
MEASURE: pIC50
Value format note: pIC50 is -log10 of concentration (mol/L); just state the number.

Worked examples, 2 compounds total:
COC(=O)c1cc2c(NC(=O)C3CCCCC3)cccc2n(Cc2ccc(OC)cc2)c1=O
6.09
O=C(CC12CC3CC(CC(C3)C1)C2)Nc1cccc2nc(-c3ccccc3)ccc12
6.35

Now, please, on to the next compound.
Query: Please look up its pIC50: COC(=O)c1cc2c(NC(=O)C34CC5CC(CC(C5)C3)C4)cccc2n(Cc2ccc(OC)cc2)c1=O
Response: 6.92

###

// values below are reported remaining at 0.5 h, 1 µM
# PROTOCOL_DESCRIPTION: Metabolic stability in mouse liver microsomes assessed as parent compound remaining at 1 uM up to 30 mins in presence of NADPH by LC-MS/MS analysis
# Type: ADME, microsome
# RUN_PARAMETERS: read-out: Stability
API: value field is a number in %; no unit string.

O=C(CC12CC3CC(CC(C3)C1)C2)Nc1cccc2nc(Cl)ccc12
0.1
Nc1ccc(-c2ccc3c(NC(=O)CC45CC6CC(CC(C6)C4)C5)cccc3n2)cc1
13.3
O=C(CC12CC3CC(CC(C3)C1)C2)Nc1cccc2nc(-c3ccc(O)cc3)ccc12
14.5
O=C(CC12CC3CC(CC(C3)C1)C2)Nc1cccc2nc(-c3ccc(C(=O)O)cc3)ccc12
8.1

Query: remaining at 0.5 h, 1 µM; subject: O=C(CC12CC3CC(CC(C3)C1)C2)Nc1cccc2nc(-c3ccc(CO)cc3)ccc12
Response: 17

###

# PROTOCOL_DESCRIPTION: Effective permeability of the compound at 50 uM after 4 hrs by BBB-PAMPA method
# Format: ADME
# RUN_PARAMETERS: read-out: Peff
MEASURE: Papp at 4 h, 50 µM (×10⁻⁶ cm/s)
Output spec: scalar in ×10⁻⁶ cm/s, unitless text.

Nc1ccc(-c2ccc3c(NC(=O)CC45CC6CC(CC(C6)C4)C5)cccc3n2)cc1
24.9
CC(=O)[C@H]1CC[C@H]2[C@@H]3CCC4=CC(=O)CC[C@]4(C)[C@H]3CC[C@]12C [PROGESTERONE]
36.6
O=C(CC12CC3CC(CC(C3)C1)C2)Nc1cccc2nc(-c3ccc(CO)cc3)ccc12
17.7

Query: Look up Papp at 4 h, 50 µM: O=C(CC12CC3CC(CC(C3)C1)C2)Nc1cccc2nc(-c3ccc(O)cc3)ccc12
Response: 16.4

###

# TGT: P2X purinoceptor 7 (Homo sapiens) (UniProt Q99572)
# Sequence (whole entry): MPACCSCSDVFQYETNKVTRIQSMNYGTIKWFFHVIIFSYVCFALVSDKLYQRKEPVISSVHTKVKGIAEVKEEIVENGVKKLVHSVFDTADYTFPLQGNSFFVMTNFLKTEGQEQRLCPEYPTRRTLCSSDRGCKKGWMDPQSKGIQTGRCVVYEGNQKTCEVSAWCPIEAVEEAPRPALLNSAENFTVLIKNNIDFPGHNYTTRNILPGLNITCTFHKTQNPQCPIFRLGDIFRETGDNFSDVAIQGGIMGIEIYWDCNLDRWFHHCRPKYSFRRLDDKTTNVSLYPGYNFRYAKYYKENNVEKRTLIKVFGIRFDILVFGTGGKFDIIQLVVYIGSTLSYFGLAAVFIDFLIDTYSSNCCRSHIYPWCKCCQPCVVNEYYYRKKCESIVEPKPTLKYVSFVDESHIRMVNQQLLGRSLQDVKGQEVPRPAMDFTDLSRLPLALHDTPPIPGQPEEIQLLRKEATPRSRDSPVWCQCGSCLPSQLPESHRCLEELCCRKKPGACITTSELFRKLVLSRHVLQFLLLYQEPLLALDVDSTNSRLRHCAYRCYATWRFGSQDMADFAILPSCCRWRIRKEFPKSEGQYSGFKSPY
# PROTOCOL_DESCRIPTION: Antagonist activity at human P2X7 receptor expressed in HEK293 cells assessed as inhibition of BzATP-induced EtBr uptake at 1 uM after 2 hrs by fluorescence assay relative to control
# Type: cell-based
MEASURE: inhibition (%)
The response must be a number in % with no trailing unit.

Worked examples, 3 compounds total:
O=C(CC12CC3CC(CC(C3)C1)C2)Nc1cccc2nc(-c3ccc(CO)cc3)ccc12
95
COc1ccc(Cn2c(=O)ccc3c(NC(=O)C45CC6CC(CC(C6)C4)C5)cccc32)cc1
29
COc1ccc(-c2ccc3c(NC(=O)CC45CC6CC(CC(C6)C4)C5)cccc3n2)cc1
89

Turning to the following compound.
Query: Fill in: inhibition of COC(=O)c1cc2c(NC(=O)C34CC5CC(CC(C5)C3)C4)cccc2n(Cc2ccc(C)cc2)c1=O is ___
Response: 30
